testSummary: NCI Yeast Anticancer Drug Screen. Data for the rad18 strain (AID 177)
cond: S. cerevisiae rad18 mutant growth inhibition; at 3.7 µM; hits give high values
About 79,000 compounds went through this panel and 15% of them were active in at least one assay; those are over-represented in the sample as a whole.
growth inhibition for assorted compounds
Reply numerically in %, unit not repeated.

compound | resultUnit | valueReported
Cn1c(=O)c2ccccc2c2ccccc21 | % | 5
O=[N+]([O-])CC(SCc1ccccc1)c1ccc2c(c1)OCO2 (centres undefined) | % | 23

Input line: What value of growth inhibition has been reported for the following compound? COc1ccc2nc3cccc([N+](=O)[O-])c3c(NCCN(CCO)CCO)c2c1
Output line: 96

Input line: What value of growth inhibition has been reported for the following compound? O=C1C=CC(=Nc2ccc3c(c2)Cc2cc(NC(=O)C(F)(F)F)ccc2-3)O1
Output line: 13

Input line: What value of growth inhibition has been reported for the following compound? CC[C@@]1(O)C(=O)OCc2c1cc1n(c2=O)Cc2cc3c(CN(C)C)c(O)ccc3nc2-1
Output line: 23

Input line: What value of growth inhibition has been reported for the following compound? CCN(CC)C(=S)N/N=C(/C)c1cccc(/C(C)=N\NC(=S)N(CC)CC)n1
Output line: 9

Input line: What value of growth inhibition has been reported for the following compound? C#CCCCc1ccccc1
Output line: -49

Ref: PubChem BioAssay (NCI)
